Reference source for all entries: patent US20140357641A1

# targetOrSystem: IP receptor (Homo sapiens, UniProt P43119)
# Sequence (P43119 whole entry): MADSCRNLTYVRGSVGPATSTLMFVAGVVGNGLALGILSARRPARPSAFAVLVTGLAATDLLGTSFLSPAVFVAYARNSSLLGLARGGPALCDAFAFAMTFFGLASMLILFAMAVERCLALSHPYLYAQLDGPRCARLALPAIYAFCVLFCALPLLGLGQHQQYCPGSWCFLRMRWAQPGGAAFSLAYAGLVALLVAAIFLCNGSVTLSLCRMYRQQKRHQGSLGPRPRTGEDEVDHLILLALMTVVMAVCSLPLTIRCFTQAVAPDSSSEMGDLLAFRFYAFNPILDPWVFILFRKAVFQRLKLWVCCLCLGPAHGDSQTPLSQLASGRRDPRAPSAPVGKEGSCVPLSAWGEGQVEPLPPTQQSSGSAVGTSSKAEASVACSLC
# assayInfo: cAMP accumulation in CHO cells stably expressing the IP receptor (CHO-IP), Perkin Elmer AlphaScreen assay
# experimentalParameters: agonist activity, 1 hour at room temperature
pEC50: −log10 of the molar value.
experimentalEndpoint: pEC50

P = Cc1ccc(-c2nc3c(nc2-c2ccc(C)cc2)N(CCCCc2noc(=O)[nH]2)CCC3)cc1
Q = Cc1ccc(-c2nc3c(nc2-c2ccc(C)cc2)N(CCCCC2=C(O)CCC2=O)CCC3)cc1
R = Cc1ccc(-c2nc3c(nc2-c2ccc(C)cc2)N(CCCCCCc2noc(=O)[nH]2)CCC3)cc1
Query: Lab note: arrange the 3 molecules above from lowest to highest pEC50. List the labels in the requested order.
Response: Q, R, P
